Source: PubChem BioAssay AID1963838

- System: 855422-203-R-J1-PDC complex spheroid viability
- method: Anticancer human tumor 855422-203-R-J1-PDC patient-derived bladder carcinoma cell line growth inhibition [POLQ]
- assay_setup: curve of first compound; second compound 1 µM
assay_endpoint: pIC50
// field semantics: pIC50 = negative decimal log of concentration (mol/L)

compound	experimental_result
CCCS(=O)(=O)Nc1ccc(F)c(C(=O)c2c[nH]c3ncc(-c4ccc(Cl)cc4)cc23)c1F + Nc1ccc(C#CCN(C(=O)Cc2ncc(C(F)(F)F)cc2C(F)(F)F)c2ccc(F)cc2)nn1	5.22

# input for lookup
Quick one: pIC50 of CC[C@@]1(O)C(=O)OCc2c1cc1n(c2=O)Cc2cc3c(CN(C)C)c(O)ccc3nc2-1 + COC1C(OC(N)=O)C(O)C(Oc2ccc3c(O)c(NC(=O)c4ccc(O)c(CC=C(C)C)c4)c(=O)oc3c2C)OC1(C)C ?
7.56

====

- Test system: 855422-203-R-J1-PDC complex spheroid viability
- method: Anticancer human tumor 855422-203-R-J1-PDC cell line growth inhibition [POLQ]; active means viability on the fitted dose curve at most 10% of control; inactive means the rest;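 also: spheroids exposed to compounds for seven days before readout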
- assay_setup: second compound 0.0316 µM; first compound 0.1 µM
Hello, when you answer, please use one of the following outcomes: 1 = active, 0 = inactive

Example results:
compound	category
C=CC(=O)N1CCN(c2nc(=O)n(-c3c(C)ccnc3C(C)C)c3nc(-c4c(O)cccc4F)c(F)cc23)C(C)C1 (stereo not given) + Cc1cccc(N(C)C(=O)C2C(O)CCN2c2nc(C)cc(C(F)(F)F)c2C#N)c1	0
COc1cc(C2c3cc4c(cc3C(OC3OC5COC(C)OC5C(O)C3O)C3COC(=O)C23)OCO4)cc(OC)c1O (stereo not given) + Nc1ccc(C#CCN(C(=O)Cc2ncc(C(F)(F)F)cc2C(F)(F)F)c2ccc(F)cc2)nn1	0
O=c1[nH]cc(F)c(=O)[nH]1 + COC1C(OC(N)=O)C(O)C(Oc2ccc3c(O)c(NC(=O)c4ccc(O)c(CC=C(C)C)c4)c(=O)oc3c2C)OC1(C)C	0

Could you now consider this next compound?
Recorded test call requested for CCc1cc2c(N3CCc4c(cc(Cn5ccnc5)cc4-c4cn(C)nc4C(F)(F)F)C3=O)ccnc2c(OC)n1 + COC1C(OC(N)=O)C(O)C(Oc2ccc3c(O)c(NC(=O)c4ccc(O)c(CC=C(C)C)c4)c(=O)oc3c2C)OC1(C)C
0

====

- System: 855422-203-R-J1-PDC complex spheroid viability
- method: Anticancer human tumor 855422-203-R-J1-PDC cell line growth inhibition [POLQ];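 also: spheroids exposed to compounds for seven days before readout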
- assay_setup: second compound 3.16 µM; first compound 0.316 µM; stronger effect = lower value
assay_endpoint: viability, T/C (%)
Provide only the numeric value, understood in %.

molecule	target	units_text	viability, T/C
CNCc1ccc(-c2[nH]c3cc(F)cc4c3c2CCNC4=O)cc1 + Nc1ccc(C#CCN(C(=O)Cc2ncc(C(F)(F)F)cc2C(F)(F)F)c2ccc(F)cc2)nn1	855422-203-R-J1-PDC complex spheroid viability	%	101
COc1ccc([C@@H](O)c2cc(-c3ncnc4cc(N5CCOCC5)ccc34)c(F)cc2Cl)nn1 + COC1C(OC(N)=O)C(O)C(Oc2ccc3c(O)c(NC(=O)c4ccc(O)c(CC=C(C)C)c4)c(=O)oc3c2C)OC1(C)C	855422-203-R-J1-PDC complex spheroid viability	%	106
CCc1cc2c(N3CCc4c(cc(Cn5ccnc5)cc4-c4cn(C)nc4C(F)(F)F)C3=O)cc(C)nc2c(OC)n1 + COC1C(OC(N)=O)C(O)C(Oc2ccc3c(O)c(NC(=O)c4ccc(O)c(CC=C(C)C)c4)c(=O)oc3c2C)OC1(C)C	855422-203-R-J1-PDC complex spheroid viability	%	75.4
CC1COCCN1c1cc(C2(S(C)(=N)=O)CC2)nc(-c2ccnc3[nH]ccc23)n1 (stereo not given) + Cc1cccc(N(C)C(=O)C2C(O)CCN2c2nc(C)cc(C(F)(F)F)c2C#N)c1	855422-203-R-J1-PDC complex spheroid viability	%	94.5

# input for lookup
Quick one: viability, T/C of C#Cc1c(F)ccc2cc(O)cc(-c3ncc4c(N5CC6CCC(C5)N6)nc(OCC56CCCN5CC(F)C6)nc4c3F)c12 (stereo not given) + Cc1cccc(N(C)C(=O)C2C(O)CCN2c2nc(C)cc(C(F)(F)F)c2C#N)c1 ?
97.5

====

- Tested on: 855422-203-R-J1-PDC complex spheroid viability
- method: Anticancer human tumor 855422-203-R-J1-PDC cell line growth inhibition [POLQ];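 also: spheroids exposed to compounds for seven days before readout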
- assay_setup: curve of compound
pIC50: −log10 of the molar value.
// reported pIC50 per item

Quick one: pIC50 of Cn1ncnc1[C@H]1c2n[nH]c(=O)c3cc(F)cc(c23)N[C@@H]1c1ccc(F)cc1 ?
< 7.00

Quick one: pIC50 of CNCc1ccc(-c2[nH]c3cc(F)cc4c3c2CCNC4=O)cc1 ?
< 5.00

====

// reported viability, T/C per item
- System: 855422-203-R-J1-PDC complex spheroid viability
- method: Anticancer human tumor 855422-203-R-J1-PDC cell line growth inhibition [POLQ];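 also: spheroids exposed to compounds for seven days before readout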
- assay_setup: second compound 0.0316 µM; first compound 0.1 µM; stronger effect = lower value
Provide only the numeric value, understood in %.

molecule	experimental_result
Cn1ncnc1[C@H]1c2n[nH]c(=O)c3cc(F)cc(c23)N[C@@H]1c1ccc(F)cc1 + Nc1ccc(C#CCN(C(=O)Cc2ncc(C(F)(F)F)cc2C(F)(F)F)c2ccc(F)cc2)nn1	132

Quick one: viability, T/C of COc1cc2cc(C(=O)CCC(=O)O)sc2cc1OC + Nc1ccc(C#CCN(C(=O)Cc2ncc(C(F)(F)F)cc2C(F)(F)F)c2ccc(F)cc2)nn1 ?
121

Quick one: viability, T/C of COc1cc2cc(C(=O)CCC(=O)O)sc2cc1OC + COC1C(OC(N)=O)C(O)C(Oc2ccc3c(O)c(NC(=O)c4ccc(O)c(CC=C(C)C)c4)c(=O)oc3c2C)OC1(C)C ?
97.2

Quick one: viability, T/C of CCc1cc2c(N3CCc4c(cc(Cn5ccnc5)cc4-c4cn(C)nc4C(F)(F)F)C3=O)cc(C)nc2c(OC)n1 + COC1C(OC(N)=O)C(O)C(Oc2ccc3c(O)c(NC(=O)c4ccc(O)c(CC=C(C)C)c4)c(=O)oc3c2C)OC1(C)C ?
78.2

Quick one: viability, T/C of C=CCn1c(=O)c2cnc(Nc3ccc(N4CCN(C)CC4)cc3)nc2n1-c1cccc(C(C)(C)O)n1 + Cc1cccc(N(C)C(=O)C2C(O)CCN2c2nc(C)cc(C(F)(F)F)c2C#N)c1 ?
100

Quick one: viability, T/C of Cn1ncnc1[C@H]1c2n[nH]c(=O)c3cc(F)cc(c23)N[C@@H]1c1ccc(F)cc1 + COC1C(OC(N)=O)C(O)C(Oc2ccc3c(O)c(NC(=O)c4ccc(O)c(CC=C(C)C)c4)c(=O)oc3c2C)OC1(C)C ?
108

Quick one: viability, T/C of O=C(c1cc(Cc2n[nH]c(=O)c3ccccc23)ccc1F)N1CCN(C(=O)C2CC2)CC1 + Cc1cccc(N(C)C(=O)C2C(O)CCN2c2nc(C)cc(C(F)(F)F)c2C#N)c1 ?
114

====

- Tested on: 855422-203-R-J1-PDC complex spheroid viability
- method: Anticancer human tumor 855422-203-R-J1-PDC cell line growth inhibition [POLQ];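 also: spheroids exposed to compounds for seven days before readout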
- assay_setup: second compound 3.16 µM; first compound 0.01 µM; stronger effect = lower value
assay_endpoint: viability, T/C

Reference set (4 entries):
molecule	target	viability, T/C
Cn1ncnc1[C@H]1c2n[nH]c(=O)c3cc(F)cc(c23)N[C@@H]1c1ccc(F)cc1 + COC1C(OC(N)=O)C(O)C(Oc2ccc3c(O)c(NC(=O)c4ccc(O)c(CC=C(C)C)c4)c(=O)oc3c2C)OC1(C)C	855422-203-R-J1-PDC complex spheroid viability	94.4%
CC[C@@]1(O)C(=O)OCc2c1cc1n(c2=O)Cc2cc3c(CN(C)C)c(O)ccc3nc2-1 + COC1C(OC(N)=O)C(O)C(Oc2ccc3c(O)c(NC(=O)c4ccc(O)c(CC=C(C)C)c4)c(=O)oc3c2C)OC1(C)C	855422-203-R-J1-PDC complex spheroid viability	112%
C=CCn1c(=O)c2cnc(Nc3ccc(N4CCN(C)CC4)cc3)nc2n1-c1cccc(C(C)(C)O)n1 + Cc1cccc(N(C)C(=O)C2C(O)CCN2c2nc(C)cc(C(F)(F)F)c2C#N)c1	855422-203-R-J1-PDC complex spheroid viability	107%
Cn1ncnc1[C@H]1c2n[nH]c(=O)c3cc(F)cc(c23)N[C@@H]1c1ccc(F)cc1 + Cc1cccc(N(C)C(=O)C2C(O)CCN2c2nc(C)cc(C(F)(F)F)c2C#N)c1	855422-203-R-J1-PDC complex spheroid viability	113%

# input for lookup
Quick one: viability, T/C of COc1cccc(OCCCN)c1-c1cc(Nc2cnc(C#N)cn2)n[nH]1 + Cc1cccc(N(C)C(=O)C2C(O)CCN2c2nc(C)cc(C(F)(F)F)c2C#N)c1 ?
183%
